The entries below come with measured polymerase ribozyme fitness (log ratio) values attached.
B1: TPR 5TU (parent)
chain: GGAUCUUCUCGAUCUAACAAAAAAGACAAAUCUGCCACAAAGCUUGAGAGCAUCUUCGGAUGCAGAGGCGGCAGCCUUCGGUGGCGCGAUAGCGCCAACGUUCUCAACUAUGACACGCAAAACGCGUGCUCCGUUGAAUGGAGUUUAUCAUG

Variants of: B1
Assay: polymerase ribozyme fitness, log enrichment relative to wild type (log ratio); higher = more active; in vitro selection for triplet polymerase activity
Variants at the floor of the assay were thinned out.
ASSAY_METRIC: polymerase ribozyme fitness (log ratio)

> print(dat)
                           mutation.notation  op  endpoint.value
 1                                  C8U C87A   ≤            -4.2
 2                            C32U G59C G84A   =           -1.81
 3  C32G A49C U53A C85U G86U C99A A138G A150G   =           -4.03
 4  U13G C36U A52G U55G C69U C76G G83C C114U C149A   ≤            -4.2
 5                      A40U G86U C93U C149U   =           -3.56
 6                                 U13G G84U   =           -3.13
 7                          C35A A107U C108U   =           -3.61
 8  A52G C57A A66G G68C C93U U101G G112U G140C U145A   ≤            -4.2
 9           A23G C35U C51U C93G A121G A122U   ≤            -4.2
10           C10U C76U A91U C95A A113U A120U   ≤            -4.2
11  U13G U56A C57U C87A G88C A89U A121U C125A U148A   ≤            -4.2
